B1: ZNF263 (parent)
chain: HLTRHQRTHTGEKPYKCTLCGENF

Variants of: B1
experiment: protein stability index of a GFP-peptide fusion (GPS, HEK-293T) (PSI 1-6); higher = more stable;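 further: lentivirally expressed fusions sorted by FACS into six bins by GFP to DsRed ratio, PSI derived from sequencing read proportions per bin multiplied by bin number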
condition.context: c terminus: a fixed tail appended
measured.metric: protein stability index
Numbers only.

A selection of reference data follows.
# mutation.code, protein stability index
rows = [
    ("C17Y", 3.05),
    ("R7Q", 2.96),
    ("H1D", 2.97),
    ("R4N", 3.09),
    ("F24I", 3.02),
    ("R7D", 3.2),
    ("C17L", 2.68),
    ("K13P", 2.88),
]

Fill in protein stability index for each of the 4 variants listed.
1. K13V
2. L2K
3. Y15D
4. R7W

[out]
1. 2.69
2. 3.38
3. 4.21
4. 2.12

Fill in protein stability index for each of the 7 variants listed.
1. G11I
2. F24V
3. H1R
4. H9M
5. H1G
6. G11N
7. T18M

[out]
2.46
3.47
3.02
2.5
2.19
2.98
2.42

Fill in protein stability index for each of the 3 variants listed.
1. C20A
2. N23F
3. R4T

[out]
[2.89, 2.33, 3.1]

Fill in protein stability index for each of the 2 variants listed.
1. E12C
2. P14N

[out]
2.41
2.92
